Data origin, for the record: patent US10202368B2

target: CXCR7 (Homo sapiens (Human)); experiment: PathHunter CHO-K1 CXCR7 β-arrestin assay (agonistic activity); conditions: β-arrestin recruitment in PathHunter CHO-K1 CXCR7 β-arrestin cells, 90 minutes at 37° C., geometric mean values
Sequence (P25106 whole entry): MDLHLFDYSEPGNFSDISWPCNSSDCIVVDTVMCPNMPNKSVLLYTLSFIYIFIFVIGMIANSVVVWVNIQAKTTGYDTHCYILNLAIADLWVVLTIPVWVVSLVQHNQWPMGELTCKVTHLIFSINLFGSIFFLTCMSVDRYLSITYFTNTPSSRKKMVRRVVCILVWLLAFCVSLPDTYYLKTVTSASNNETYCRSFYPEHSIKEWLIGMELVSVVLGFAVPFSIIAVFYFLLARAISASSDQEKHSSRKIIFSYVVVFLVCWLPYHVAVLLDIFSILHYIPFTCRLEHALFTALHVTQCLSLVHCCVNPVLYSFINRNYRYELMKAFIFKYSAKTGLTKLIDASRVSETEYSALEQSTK
Sequence (P32121 whole entry partner): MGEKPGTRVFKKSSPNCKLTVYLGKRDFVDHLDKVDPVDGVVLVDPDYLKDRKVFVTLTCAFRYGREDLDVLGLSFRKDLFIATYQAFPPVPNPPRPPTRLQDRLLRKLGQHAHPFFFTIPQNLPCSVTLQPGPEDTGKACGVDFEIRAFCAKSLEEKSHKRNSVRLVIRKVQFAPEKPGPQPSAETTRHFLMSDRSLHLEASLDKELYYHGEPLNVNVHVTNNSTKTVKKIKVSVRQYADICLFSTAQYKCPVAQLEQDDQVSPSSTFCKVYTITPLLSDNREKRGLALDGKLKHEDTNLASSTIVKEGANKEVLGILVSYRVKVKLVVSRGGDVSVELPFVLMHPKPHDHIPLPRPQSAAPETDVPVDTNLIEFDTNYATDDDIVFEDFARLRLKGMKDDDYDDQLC
# EC50 annotations
# output: bare number, implied unit nM

// solved cases for EC50 follow
CCN1CCOc2c(NCC(=O)N(CCNC(C)C)Cc3ccccc3C(F)(F)F)cccc2C1=O; 16
CCN1CCOc2c(cccc2NCC(=O)N(CCN(C)C)Cc2ncccc2Cl)C1; 24
CCN1CCOc2c(cccc2NCC(=O)N(CCN(C)C)Cc2ncccc2C(F)(F)F)C1; 6
CC(C)CN1CCOc2c(cccc2NCC(=O)N(CCN2CCCC2)Cc2ccc(F)cc2F)C1; 14

Enquiry: Which measured EC50 value corresponds to `CC(C)CN1CCOc2c(cccc2NCC(=O)N(CCN(C)C)Cc2ccccc2C(F)(F)F)C1` ?
Return: 8

Enquiry: And then `CN(C)CCN(Cc1ccccc1C(F)(F)F)C(=O)CNc1cccc2c1N(C)CCN(CC1CC1)C2=O` , what is it?
Return: 7

Enquiry: Field entry: `Cc1cccnc1CN(CCN(C)C)C(=O)CNc1cccc2c1CN(CC1CC1)CCO2`
Return: 23

Enquiry: Same again, this time with `CCN1CCOc2c(NCC(=O)N(CCN(C)C)Cc3ncccc3C)cccc2C1=O`
Return: 400
